test: Half life in human intestinal S9 fraction at 2 uM by LC/MS/MS analysis; assay type: ADME, Intestine
Could you please report measured half-life at 2 µM for the items listed next?
Express your answer in h, writing the number without its unit.

Problem: half-life at 2 µM lookup needed for CCC(CC)COC(=O)[C@H](C)NP(=O)(OC[C@H]1O[C@@](C#N)(c2ccc3c(N)ncnn23)[C@](C)(O)[C@@H]1O)Oc1ccccc1 (stereo partly specified) , thanks.
Result: 1.23

Problem: Param item = C[C@H](NP(=O)(OC[C@H]1O[C@@](C#N)(c2ccc3c(N)ncnn23)[C@](C)(O)[C@@H]1O)Oc1ccccc1)C(=O)OC1CCCC1 (stereo partly specified) ; retrieve measured half-life at 2 µM.
Result: 0.5

Problem: Using the record for CCOC(=O)[C@H](C)NP(=O)(OC[C@H]1O[C@@](C#N)(c2ccc3c(N)ncnn23)[C@](C)(O)[C@@H]1O)Oc1ccccc1 (stereo partly specified) , report its half-life at 2 µM.
Result: 1.15

Problem: Quick one: half-life at 2 µM for CC[C@H](C)OC(=O)[C@H](C)NP(=O)(OC[C@H]1O[C@@](C#N)(c2ccc3c(N)ncnn23)[C@](C)(O)[C@@H]1O)Oc1ccccc1 (stereo partly specified) ?
Result: 9.87

====

assay: Half life in human intestinal S9 fraction at 2 uM by LC/MS/MS analysis; type: ADME, Intestine
Provide the recorded half-life at 2 µM for the entries that follow.
Provide only the numeric value, understood in h.

Problem: I am curious: what half-life at 2 µM value has been reported for C[C@H](NP(=O)(OC[C@H]1O[C@@](C#N)(c2ccc3c(N)ncnn23)[C@](C)(O)[C@@H]1O)Oc1ccccc1)C(=O)OCC(C)(C)C (some centres undefined) ?
Result: 1.42

Problem: Bench note: what half-life at 2 µM did COC(=O)[C@H](C)NP(=O)(OC[C@H]1O[C@@](C#N)(c2ccc3c(N)ncnn23)[C@](C)(O)[C@@H]1O)Oc1ccccc1 (some centres undefined) show?
Result: 3.17

Problem: Please report the recorded half-life at 2 µM for CC[C@@H](C)OC(=O)[C@H](C)NP(=O)(OC[C@H]1O[C@@](C#N)(c2ccc3c(N)ncnn23)[C@](C)(O)[C@@H]1O)Oc1ccccc1 (some centres undefined) .
Result: 7.68

Problem: Quick one: half-life at 2 µM of C[C@H](NP(=O)(OC[C@H]1O[C@@](C#N)(c2ccc3c(N)ncnn23)[C@](C)(O)[C@@H]1O)Oc1ccccc1)C(=O)OCc1ccccc1 (some centres undefined) ?
Result: 2.15

====

Can you tell me pEC50 for the items I'm about to list?
tested on: Hepatitis C virus; experiment: Antiviral activity against HCV genotype 1b infected in human HuH7 cells assessed as inhibition of viral replication after 3 days by luminescence assay; type: functional, organism-based, Hepacivirus hominis; conditions: Huh-7, 72 h
# pEC50 is unitless: minus log10 of the molar concentration; print number only

Problem: // pEC50 lookup, key: CC(C)OC(=O)[C@H](C)NP(=O)(OC[C@H]1O[C@@](C#N)(c2ccc3c(N)ncnn23)[C@]2(C)OC(=O)O[C@H]12)Oc1ccccc1 (stereo not given in full)
Result: 5.85

Problem: // lookup pEC50 for C[C@H](NP(=O)(OC[C@H]1O[C@@](C#N)(c2ccc3c(N)ncnn23)[C@](C)(O)[C@@H]1O)Oc1ccccc1)C(=O)OC1CCCC1 (stereo not given in full)
Result: 6.35

Problem: For the compound shown here, COC(=O)[C@H](C)NP(=O)(OC[C@H]1O[C@@](C#N)(c2ccc3c(N)ncnn23)[C@](C)(O)[C@@H]1O)Oc1ccccc1 (stereo not given in full) , give the reported pEC50.
Result: 5.86

Problem: What value of pEC50 has been recorded for this entry: CCOC(=O)[C@H](C)NP(=O)(OC[C@H]1O[C@@](C#N)(c2ccc3c(N)ncnn23)[C@](C)(O)[C@@H]1O)Oc1ccccc1 (stereo not given in full)
Result: 5.84

Problem: Look up pEC50 for this compound: CC(C)OC(=O)[C@H](C)NP(=O)(OC[C@H]1O[C@@](C#N)(c2ccc3c(N)ncnn23)[C@](C)(O)[C@@H]1O)Oc1ccccc1 (stereo not given in full)
Result: 5.98

Problem: What pEC50 value was documented for this compound, C[C@H](NP(=O)(OC[C@H]1O[C@@](C#N)(c2ccc3c(N)ncnn23)[C@](C)(O)[C@@H]1O)Oc1ccccc1)C(=O)OCc1ccccc1 (stereo not given in full) ?
Result: 6.48

Problem: Entry under review: CC[C@H](C)OC(=O)[C@H](C)NP(=O)(OC[C@H]1O[C@@](C#N)(c2ccc3c(N)ncnn23)[C@](C)(O)[C@@H]1O)Oc1ccccc1 (stereo not given in full) . Reported pEC50?
Result: 6.64

Problem: Return reported pEC50; argument: CCC(CC)COC(=O)[C@H](C)NP(=O)(OC[C@H]1O[C@@](C#N)(c2ccc3c(N)ncnn23)[C@](C)(O)[C@@H]1O)Oc1ccccc1 (stereo not given in full)
Result: 6.36

Problem: Quick check: pEC50 of CC(C)OC(=O)[C@H](C)NP(=O)(OC[C@H]1O[C@@](C#N)(c2ccc3c(N)ncnn23)[C@](C)(O)[C@@H]1OC(=O)C(C)C)Oc1ccccc1 (stereo not given in full) ?
Result: 6.21

Problem: Looking for the measured pEC50 of CC[C@@H](C)OC(=O)[C@H](C)NP(=O)(OC[C@H]1O[C@@](C#N)(c2ccc3c(N)ncnn23)[C@](C)(O)[C@@H]1O)Oc1ccccc1 (stereo not given in full) , can you help?
Result: 6.01

Problem: I would be grateful if you could share the reported pEC50 for C[C@H](NP(=O)(OC[C@H]1O[C@@](C#N)(c2ccc3c(N)ncnn23)[C@](C)(O)[C@@H]1O)Oc1ccccc1)C(=O)OCC(C)(C)C (stereo not given in full) .
Result: 6.74

====

experiment: Oral bioavailability in golden syrian hamster at 5 mg/kg; type: ADME, organism-based, Mesocricetus auratus; settings: in vivo
Hi there, I'd appreciate the recorded bioavailability for every entry that follows.
Numeric only. Scale: %

Problem: Report bioavailability for CCC(CC)COC(=O)[C@H](C)NP(=O)(OC[C@H]1O[C@@](C#N)(c2ccc3c(N)ncnn23)[C@](C)(O)[C@@H]1O)Oc1ccccc1 (stereo partly specified) please.
Result: 5.4

Problem: Given the entry COC(=O)[C@H](C)NP(=O)(OC[C@H]1O[C@@](C#N)(c2ccc3c(N)ncnn23)[C@](C)(O)[C@@H]1O)Oc1ccccc1 (stereo partly specified) , report its measured bioavailability.
Result: 0.9

Problem: Returns the measured bioavailability for the input molecule. Input: C[C@H](NP(=O)(OC[C@H]1O[C@@](C#N)(c2ccc3c(N)ncnn23)[C@](C)(O)[C@@H]1O)Oc1ccccc1)C(=O)OC1CCCC1 (stereo partly specified)
Result: 6

Problem: Value lookup for bioavailability; key = CCOC(=O)[C@H](C)NP(=O)(OC[C@H]1O[C@@](C#N)(c2ccc3c(N)ncnn23)[C@](C)(O)[C@@H]1O)Oc1ccccc1 (stereo partly specified)
Result: 2.5

Problem: # input molecule: CC(C)OC(=O)[C@H](C)NP(=O)(OC[C@H]1O[C@@](C#N)(c2ccc3c(N)ncnn23)[C@](C)(O)[C@@H]1O)Oc1ccccc1 (stereo partly specified) ; wanted: its bioavailability
Result: 1.9

Problem: Can you look up the measured bioavailability of C[C@H](NP(=O)(OC[C@H]1O[C@@](C#N)(c2ccc3c(N)ncnn23)[C@](C)(O)[C@@H]1O)Oc1ccccc1)C(=O)OCC(C)(C)C (stereo partly specified) for me?
Result: 5.6

====

experiment: Permeability across basolateral to apical side in human Caco2 cells at 10 uM after 1 to 2 hrs by LC/MS/MS analysis; assay type: ADME, cell-based; settings: Caco-2, read-out: permeability
Task for the reader: assign each of the following compounds its reported Papp B→A at 10 µM.
A number alone suffices; assume ×10⁻⁶ cm/s.

Problem: Fill in: Papp B→A at 10 µM of COC(=O)[C@H](C)NP(=O)(OC[C@H]1O[C@@](C#N)(c2ccc3c(N)ncnn23)[C@](C)(O)[C@@H]1O)Oc1ccccc1 (stereo not given in full) is ___
Result: 4.64

Problem: Which value of Papp B→A at 10 µM has been reported for CCC(CC)COC(=O)[C@H](C)NP(=O)(OC[C@H]1O[C@@](C#N)(c2ccc3c(N)ncnn23)[C@](C)(O)[C@@H]1O)Oc1ccccc1 (stereo not given in full) in the records?
Result: 7.2

Problem: Given CCOC(=O)[C@H](C)NP(=O)(OC[C@H]1O[C@@](C#N)(c2ccc3c(N)ncnn23)[C@](C)(O)[C@@H]1O)Oc1ccccc1 (stereo not given in full) , state its recorded Papp B→A at 10 µM.
Result: 2.98

Problem: Could you share which Papp B→A at 10 µM value was measured for CC(C)OC(=O)[C@H](C)NP(=O)(OC[C@H]1O[C@@](C#N)(c2ccc3c(N)ncnn23)[C@](C)(O)[C@@H]1O)Oc1ccccc1 (stereo not given in full) ?
Result: 8.92

Problem: Item CC[C@H](C)OC(=O)[C@H](C)NP(=O)(OC[C@H]1O[C@@](C#N)(c2ccc3c(N)ncnn23)[C@](C)(O)[C@@H]1O)Oc1ccccc1 (stereo not given in full) has what recorded Papp B→A at 10 µM?
Result: 17.9

Problem: What Papp B→A at 10 µM value was documented for this compound, C[C@H](NP(=O)(OC[C@H]1O[C@@](C#N)(c2ccc3c(N)ncnn23)[C@](C)(O)[C@@H]1O)Oc1ccccc1)C(=O)OCC(C)(C)C (stereo not given in full) ?
Result: 29.1

Problem: Entry under review: C[C@H](NP(=O)(OC[C@H]1O[C@@](C#N)(c2ccc3c(N)ncnn23)[C@](C)(O)[C@@H]1O)Oc1ccccc1)C(=O)OC1CCCC1 (stereo not given in full) . Reported Papp B→A at 10 µM?
Result: 5.86

Problem: Sample CC[C@@H](C)OC(=O)[C@H](C)NP(=O)(OC[C@H]1O[C@@](C#N)(c2ccc3c(N)ncnn23)[C@](C)(O)[C@@H]1O)Oc1ccccc1 (stereo not given in full) — what was its Papp B→A at 10 µM?
Result: 37.5

Problem: Which value of Papp B→A at 10 µM has been reported for C[C@H](NP(=O)(OC[C@H]1O[C@@](C#N)(c2ccc3c(N)ncnn23)[C@](C)(O)[C@@H]1O)Oc1ccccc1)C(=O)OCc1ccccc1 (stereo not given in full) in the records?
Result: 25.3

Problem: Can you share its Papp B→A at 10 µM? I mean this compound: C[C@H](NP(=O)(OC[C@H]1O[C@@](C#N)(c2ccc3c(N)ncnn23)[C@](C)(O)[C@@H]1O)Oc1ccccc1)C(=O)OC(C)(C)C (stereo not given in full)
Result: 31.1
